method: Selectivity index, ratio of IC50 for African green monkey Vero C1008 cells to MIC for Mycobacterium tuberculosis H37Rv
Type: toxicity, cell-based
assaySetup: read-out: Selectivity Index
Reported selectivity ratio values for the following compounds.

Entry CC(C)N(CCOc1ccc(C(c2cccc(Cl)c2)c2cccs2)cc1)C(C)C (centres undefined) has what selectivity ratio? > 10

Same for Clc1ccc(C(c2ccc(OCCN3CCCCC3)cc2)c2cccs2)cc1 (centres undefined) > 10

Same for CN(C)CCOc1ccc(C(c2cccc(Cl)c2)c2cccs2)cc1 (centres undefined) < 10

Same for CC(C)N(CCOc1ccc(C(c2ccc(Cl)cc2)c2cccs2)cc1)C(C)C (centres undefined) > 10

Same for COc1ccccc1C(c1ccc(OCCN2CCCCC2)cc1)c1cccs1 (centres undefined) < 10

Same for Clc1cccc(C(c2ccc(OCCN3CCCCC3)cc2)c2cccs2)c1 (centres undefined) < 10

Same for CCN(CC)CCOc1ccc(C(c2cccc(Cl)c2)c2cccs2)cc1 (centres undefined) < 10

Same for Clc1cccc(C(c2ccc(OCCN3CCOCC3)cc2)c2cccs2)c1 (centres undefined) < 10

// next item, selectivity ratio requested
Entry Clc1cccc(C(c2ccc(OCCN3CCCC3)cc2)c2cccs2)c1 (centres undefined) has what selectivity ratio? < 10
